Source: patent US8557816B2

System Under Test: AuroraA-TPX2 (Homo sapiens, UniProt O14965)
Construct: 20 μL of AuroraA-TPX2 KD GST for a final volume of about 41 μL; GST
Sequence (O14965 133-383 limits assumed): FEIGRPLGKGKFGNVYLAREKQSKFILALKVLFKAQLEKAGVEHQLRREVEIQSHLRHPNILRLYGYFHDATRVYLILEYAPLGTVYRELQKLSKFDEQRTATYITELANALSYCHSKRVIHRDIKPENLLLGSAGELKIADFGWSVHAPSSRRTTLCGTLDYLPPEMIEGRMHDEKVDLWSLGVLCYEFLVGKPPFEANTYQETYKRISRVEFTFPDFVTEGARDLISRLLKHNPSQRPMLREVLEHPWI
Sequence (Q9ULW0 1-43 partner limits assumed): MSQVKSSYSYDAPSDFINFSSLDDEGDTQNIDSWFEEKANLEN
Test Method Notes: AuroraA-TPX2 Homogeneous Time Resolved Fluorescent (HTRF) kinase assay
Assay type: biochemical
Setup Conditions: average; read-out: AurA_IC50_IP (uM Avg)
Measure: IC50 (µM)

Worked examples, 4 compounds total:
Chem Smiles	System Under Test	IC50, µM
N#Cc1ccc2c(Sc3ccc(Nc4nnc(-c5ccccc5)c5ccccc45)cc3)ccnc2c1	AuroraA-TPX2 (Homo sapiens, UniProt O14965)	0.18
COc1cnc2c(Oc3ccc(Nc4nnc(-c5ccccc5)c5ccccc45)cn3)ccnc2c1	AuroraA-TPX2 (Homo sapiens, UniProt O14965)	0.079
c1cnc2c(Sc3ccc(Nc4nnc(-c5ccc6occc6c5)c5ccccc45)cc3)ccnc2c1	AuroraA-TPX2 (Homo sapiens, UniProt O14965)	0.035
COCc1cc(-c2ccccc2)nnc1Nc1ccc(Oc2ccnc3cc(OC)cnc23)cc1	AuroraA-TPX2 (Homo sapiens, UniProt O14965)	0.526

[P] COc1cnc2c(Sc3ccc(Nc4nnc(-c5cc(C)cs5)c5ccccc45)cc3)ccnc2c1
[Q] COc1cc2nccc(Oc3ccc(Nc4nnc(-c5ccc(C(C)(C)C)cc5)c5ccccc45)cc3)c2cc1OC
Prompt: Field: lower IC50 | Options: P / Q Lab log: write the label of the selected item as the result.
Response: Q

---

System Under Test: AuroraB (Homo sapiens, UniProt Q96GD4)
Construct: 20 μL of AuroraB FL H is for a final volume of 41 μL; His
Sequence (Q96GD4 whole entry): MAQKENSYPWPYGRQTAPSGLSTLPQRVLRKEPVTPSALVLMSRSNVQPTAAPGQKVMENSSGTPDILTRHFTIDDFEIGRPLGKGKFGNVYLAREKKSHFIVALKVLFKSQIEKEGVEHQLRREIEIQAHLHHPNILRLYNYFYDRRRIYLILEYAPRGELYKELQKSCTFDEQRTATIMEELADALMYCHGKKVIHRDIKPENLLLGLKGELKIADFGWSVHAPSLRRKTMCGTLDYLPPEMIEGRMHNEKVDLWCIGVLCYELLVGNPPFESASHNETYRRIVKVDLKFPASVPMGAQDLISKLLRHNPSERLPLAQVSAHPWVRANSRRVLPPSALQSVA
Test Method Notes: AuroraB Homogeneous Time Resolved Fluorescent (HTRF) kinase assay
Assay type: biochemical
Setup Conditions: average; read-out: AurB_IC50_IP (uM Avg)
Measure: IC50 (µM)

[P] c1ccc(-c2nnc(Nc3ccc(Sc4ccnc5cc[nH]c45)cc3)c3ccccc23)cc1
[Q] c1ccc2c(-c3ccc4c(c3)OCO4)nnc(Nc3ccc(Oc4ccnc5ccsc45)cc3)c2c1
Prompt: For P and Q , which recorded IC50 is lower? // output: label of the selected item
Response: Q

---

System Under Test: AuroraB (Homo sapiens, UniProt Q96GD4)
Construct: 20 μL of AuroraB FL H is for a final volume of 41 μL; His
Test Method Notes: AuroraB Homogeneous Time Resolved Fluorescent (HTRF) kinase assay
Format: biochemical
Setup Conditions: average; read-out: AurB_IC50_IP (uM Avg)
Measure: IC50 (µM)

Use the examples below as a reference point.
Compound	IC50 [µM]
COc1cnc2c(Sc3ccc(Nc4nnc(-c5cc(C)cs5)c5ccccc45)cc3)ccnc2c1	0.024
Oc1cnc2c(Sc3ccc(Nc4nnc(-c5ccccc5)c5ccccc45)cc3)ccnc2c1	0.012
N#Cc1cnc2c(Oc3ccc(Nc4nnc(-c5ccccc5)c5ccccc45)cc3)ccnc2c1	0.015
Cc1cc2nccc(Sc3ccc(Nc4nnc(-c5ccc(Cl)cc5)c5ccccc45)cc3)c2o1	0.039
c1ccc(-c2nnc(Nc3ccc(Oc4ccnc5cc(N6CCOCC6)ccc45)cc3)c3ccccc23)cc1	0.002
Clc1ccc(-c2nnc(Nc3ccc(Sc4ccnc5cccnc45)cc3)c3ccccc23)cc1 [compound 308]	0.004

[1] COc1cnc2c(Oc3ccc(Nc4nnc(-c5ccc(Cl)cc5C)c5ccccc45)cc3)ccnc2c1
[2] CN1CCN(c2nnc(Nc3ccc(Oc4ccnc5cc(C#N)ccc45)cc3)c3ccccc23)CC1
Prompt: // compare measured IC50, left 1 , right 2 , return larger Answer format: the label of the selected item.
Response: 1
(1: 0.021 µM, 2: 0.001 µM)
